All values here come from PubChem BioAssay AID1159588.

- TARGET OR TEST SYSTEM: Calcium-dependent protein kinase 4 (Plasmodium falciparum (isolate 3D7))
- METHOD NOTES: PfCDPK4 kinase inhibitors, biochemical, TCAMS library (AID 1159588)
- TEST CONDITIONS: recombinant PfCDPK4, Kinase-Glo ATP depletion luminescence
PARAMETER MEASURED: IC50

Incoming: Quick check: IC50 on Calcium-dependent protein kinase 4 (Plasmodium falciparum (isolate 3D7)), item `CCn1c(-c2nonc2N)nc2c(-c3ccccc3)ncc(OCCCNCCCN3CCOCC3)c21` ?
Outgoing: 38 nM

Incoming: Quick check: IC50 on Calcium-dependent protein kinase 4 (Plasmodium falciparum (isolate 3D7)), item `NC[C@H](CC1CCCCC1)NC(=O)c1ccc(-c2ccnc3[nH]ccc23)s1` ?
Outgoing: 527 nM

Incoming: Quick check: IC50 on Calcium-dependent protein kinase 4 (Plasmodium falciparum (isolate 3D7)), item CC(c1cccc(Nc2nccc(-c3c(-c4cccc(NC(=O)c5c(F)cccc5F)c4)nn4ccccc34)n2)c1)S(C)(=O)=O (configuration not stated) ?
Outgoing: 90 nM

Incoming: Quick check: IC50 on Calcium-dependent protein kinase 4 (Plasmodium falciparum (isolate 3D7)), item `NS(=O)(=O)CCc1cccc(Nc2nccc(-c3c(-c4cccc(NC(=O)c5c(F)cccc5F)c4)nn4ccccc34)n2)c1` ?
Outgoing: 29 nM

Incoming: Quick check: IC50 on Calcium-dependent protein kinase 4 (Plasmodium falciparum (isolate 3D7)), item `Cc1cccc(Nc2nc(N[C@@H]3CCCNC3)nc3cc[nH]c(=O)c23)c1` ?
Outgoing: 76 nM

---

Here the recorded IC50 is given for each entry.
- TARGET OR TEST SYSTEM: Calcium-dependent protein kinase 4 (Plasmodium falciparum (isolate 3D7))
- METHOD NOTES: PfCDPK4 kinase inhibitors, biochemical, TCAMS library (AID 1159588)
- TEST CONDITIONS: recombinant PfCDPK4, Kinase-Glo ATP depletion luminescence

COMPOUND | IC50
O=C(Nc1cccc(-c2nn3ccccc3c2-c2ccnc(Nc3ccc(-c4ccn[nH]4)cc3)n2)c1)c1c(F)cccc1F | 0.307 µM
O=C(Nc1ccccc1)Nc1cccc(-c2nn3c(OCCN4CCCC4)cccc3c2-c2ccncc2)c1 | 0.775 µM

Incoming: Quick check: IC50 on Calcium-dependent protein kinase 4 (Plasmodium falciparum (isolate 3D7)), item `CCN(CC)CCCOc1ccc(Nc2nccc(-c3c(-c4cccc(NC(=O)c5c(F)cccc5F)c4)nn4ccccc34)n2)cc1F` ?
Outgoing: 0.086 µM

Incoming: Quick check: IC50 on Calcium-dependent protein kinase 4 (Plasmodium falciparum (isolate 3D7)), item `CCn1c(-c2nonc2N)nc2c(-c3ccccc3)ncc(OCCCCNCCc3ncc[nH]3)c21` ?
Outgoing: 0.043 µM

Incoming: Quick check: IC50 on Calcium-dependent protein kinase 4 (Plasmodium falciparum (isolate 3D7)), item `Cc1cc(Nc2ncc(C#N)c(Nc3ccccc3C(N)=O)n2)ccc1N1CCN(C)CC1` ?
Outgoing: 0.089 µM

Incoming: Quick check: IC50 on Calcium-dependent protein kinase 4 (Plasmodium falciparum (isolate 3D7)), item `CCn1c(-c2nonc2N)nc2c(-c3cccc(NC(=O)Nc4ccccc4Cl)c3)ncc(OCCCN)c21` ?
Outgoing: 0.138 µM

Incoming: Quick check: IC50 on Calcium-dependent protein kinase 4 (Plasmodium falciparum (isolate 3D7)), item `NS(=O)(=O)c1cccc(N=Cc2c(O)[nH]c3ccc(S(=O)(=O)Cc4c(Cl)cccc4Cl)cc23)c1` ?
Outgoing: 0.116 µM

Incoming: Quick check: IC50 on Calcium-dependent protein kinase 4 (Plasmodium falciparum (isolate 3D7)), item `CC(=O)Nc1cccc(Nc2nccc(-c3c(-c4cccc(NC(=O)c5c(F)cccc5F)c4)nn4ncccc34)n2)c1` ?
Outgoing: 0.026 µM

Incoming: Quick check: IC50 on Calcium-dependent protein kinase 4 (Plasmodium falciparum (isolate 3D7)), item `Cc1cccc(Nc2nc(NCCCCN)nc3cc[nH]c(=O)c23)c1` ?
Outgoing: 0.166 µM

Incoming: Quick check: IC50 on Calcium-dependent protein kinase 4 (Plasmodium falciparum (isolate 3D7)), item `CN1CCN(c2ccc(Nc3ncc(C#N)c(Nc4ccccc4C(N)=O)n3)cc2)CC1` ?
Outgoing: 0.188 µM

Incoming: Quick check: IC50 on Calcium-dependent protein kinase 4 (Plasmodium falciparum (isolate 3D7)), item `COc1cc(Nc2nccc(-c3c(-c4cccc(NC(=O)c5c(F)cccc5F)c4)nn4ncccc34)n2)cc(OC)c1OC` ?
Outgoing: 0.045 µM

Incoming: Quick check: IC50 on Calcium-dependent protein kinase 4 (Plasmodium falciparum (isolate 3D7)), item `O=C(Nc1cccc(-c2nn3ccccc3c2-c2ccnc(Nc3ccc(NCCCN4CCOCC4)c(F)c3)n2)c1)c1c(F)cccc1F` ?
Outgoing: 0.315 µM

Incoming: Quick check: IC50 on Calcium-dependent protein kinase 4 (Plasmodium falciparum (isolate 3D7)), item NCC(NC(=O)c1ccc(-c2c[nH]c3ncccc23)s1)c1ccccc1 (centres undefined) ?
Outgoing: 0.473 µM

Incoming: Quick check: IC50 on Calcium-dependent protein kinase 4 (Plasmodium falciparum (isolate 3D7)), item `CCS(=O)(=O)c1ccc(OC)c(Nc2nccc(-c3c(-c4cccc(NC(=O)c5c(F)cccc5F)c4)nn4ncccc34)n2)c1` ?
Outgoing: 0.201 µM

Incoming: Quick check: IC50 on Calcium-dependent protein kinase 4 (Plasmodium falciparum (isolate 3D7)), item `CCn1c(-c2nonc2N)nc2c(-c3cccc(NC(=O)Nc4ccccc4OC)c3)ncc(OCCCN)c21` ?
Outgoing: 0.706 µM

Incoming: Quick check: IC50 on Calcium-dependent protein kinase 4 (Plasmodium falciparum (isolate 3D7)), item `CCn1c(-c2nonc2N)nc2c(-c3cccc(NC(=O)Nc4cccc(C#N)c4)c3)ncc(OCCCN)c21` ?
Outgoing: 0.17 µM

Incoming: Quick check: IC50 on Calcium-dependent protein kinase 4 (Plasmodium falciparum (isolate 3D7)), item `CNC(=O)c1ccccc1Nc1nc(Nc2ccc(CCN3CCN(C)CC3)cc2)ncc1Cl` ?
Outgoing: 0.361 µM

Incoming: Quick check: IC50 on Calcium-dependent protein kinase 4 (Plasmodium falciparum (isolate 3D7)), item `NS(=O)(=O)c1cccc(Nc2nc(N[C@@H]3CCNC3)nc3cc[nH]c(=O)c23)c1` ?
Outgoing: 0.135 µM

Incoming: Quick check: IC50 on Calcium-dependent protein kinase 4 (Plasmodium falciparum (isolate 3D7)), item `CCn1c(-c2nonc2N)nc2c(-c3cccc(NC(=O)Nc4cccc(Cl)c4)c3)ncc(OCCCN)c21` ?
Outgoing: 0.081 µM

Incoming: Quick check: IC50 on Calcium-dependent protein kinase 4 (Plasmodium falciparum (isolate 3D7)), item `CS(=O)(=O)Cc1ccc(Nc2nccc(-c3c(-c4cccc(NC(=O)c5c(F)cccc5F)c4)nn4ccccc34)n2)cc1` ?
Outgoing: 0.052 µM

Incoming: Quick check: IC50 on Calcium-dependent protein kinase 4 (Plasmodium falciparum (isolate 3D7)), item `CN1CCN(c2ccc(Nc3nccc(-c4c(-c5cccc(NC(=O)c6c(F)cccc6F)c5)nn5ccccc45)n3)cc2)CC1` ?
Outgoing: 0.075 µM

Incoming: Quick check: IC50 on Calcium-dependent protein kinase 4 (Plasmodium falciparum (isolate 3D7)), item `CCn1c(-c2nonc2N)nc2c(-c3cccc(Cl)c3)ncc(OCCCNCCc3cnc[nH]3)c21` ?
Outgoing: 0.046 µM

Incoming: Quick check: IC50 on Calcium-dependent protein kinase 4 (Plasmodium falciparum (isolate 3D7)), item `CS(=O)(=O)Cc1ccc(Nc2nccc(-c3c(-c4cccc(NC(=O)C5CCCCC5)c4)nn4ncccc34)n2)cc1` ?
Outgoing: 0.067 µM

Incoming: Quick check: IC50 on Calcium-dependent protein kinase 4 (Plasmodium falciparum (isolate 3D7)), item `CCn1c(-c2nonc2N)nc2c(-c3cccc(NC(=O)Nc4ccc(C(F)(F)F)cc4)c3)ncc(OCCCN)c21` ?
Outgoing: 0.03 µM
